# credit: ChEMBL document CHEMBL1255467

# Test system: Staphylococcus sp.
# ASSAY_NOTES: Antimicrobial activity against Staphylococcus sp. by broth dilution method
# Format: functional
# EXPERIMENTAL_SETUP: Staphylococcus sp.
ENDPOINT_LABEL: MIC50 (µg/mL)
Numeric answer only, unit µg/mL assumed.

MOLECULE	QUANTITATIVE_READOUT
C[C@H]1COc2c(N3CCN(C)CC3)c(F)cc3c(=O)c(C(=O)O)cn1c23.C[C@H]1COc2c(N3CCN(C)CC3)c(F)cc3c(=O)c(C(=O)O)cn1c23.O [LEVOFLOXACIN]	0.5
CO/N=C(\C(=O)N[C@@H]1C(=O)N2C(C(=O)O)=C(COC(C)=O)CS[C@H]12)c1csc(N)n1 [CEFOTAXIME]	4
Cn1nnc(-c2ccc(-c3ccc(N4C[C@H](CO)OC4=O)cc3F)cn2)n1 [TEDIZOLID]	0.25

Now for a further molecule.
Ask: Give me measured MIC50, please, for this molecule: CC(=O)NC[C@H]1CN(c2ccc(N3CCOCC3)c(F)c2)C(=O)O1 [LINEZOLID]
Reply: 2

====

# Tested on: Streptococcus viridans
# ASSAY_NOTES: Antimicrobial activity against Streptococcus viridans by broth dilution method
# Type: functional
MIC50 values for the molecules below.
Numeric answer only, unit µg/mL assumed.

> print(dat)
                           substance.smiles  endpoint.label  scale.unit  quantitative.readout
1  Cn1nnc(-c2ccc(-c3ccc(N4C[C@H](CO)OC4=O)cc3F)cn2)n1           MIC50       µg/mL                  0.25
2  CC(=O)NC[C@H]1CN(c2ccc(N3CCOCC3)c(F)c2)C(=O)O1           MIC50       µg/mL                     2
3  C[C@H]1COc2c(N3CCN(C)CC3)c(F)cc3c(=O)c(C(=O)O)cn1c23.C[C@H]1COc2c(N3CCN(C)CC3)c(F)cc3c(=O)c(C(=O)O)cn1c23.O           MIC50       µg/mL                     1

Now for a further molecule.
Ask: Give me measured MIC50, please, for this molecule: CO/N=C(\C(=O)N[C@@H]1C(=O)N2C(C(=O)O)=C(COC(C)=O)CS[C@H]12)c1csc(N)n1
Reply: 0.12

====

# Test system: Corynebacterium jeikeium
# ASSAY_NOTES: Antimicrobial activity against Corynebacterium jeikeium by broth dilution method
# Type: functional
MIC90 values for the molecules below.
Numeric answer only, unit µg/mL assumed.

Recorded MIC90, per entry:
> print(dat)
                           substance.smiles  scale.unit  quantitative.readout
1  CO/N=C(\C(=O)N[C@@H]1C(=O)N2C(C(=O)O)=C(COC(C)=O)CS[C@H]12)c1csc(N)n1       µg/mL                    32
2  CC(=O)NC[C@H]1CN(c2ccc(N3CCOCC3)c(F)c2)C(=O)O1       µg/mL                     1

Now for a further molecule.
Ask: Would you please give the reported MIC90 of Cn1nnc(-c2ccc(-c3ccc(N4C[C@H](CO)OC4=O)cc3F)cn2)n1 with Corynebacterium jeikeium?
Reply: 0.5

====

Dear all, this message contains MIC50 results, target or system Streptococcus sp.
Numeric answer only, unit µg/mL assumed.

> print(dat)
                           substance.smiles  scale.unit  quantitative.readout
1  CO/N=C(\C(=O)N[C@@H]1C(=O)N2C(C(=O)O)=C(COC(C)=O)CS[C@H]12)c1csc(N)n1       µg/mL                  0.03
2  CC(=O)NC[C@H]1CN(c2ccc(N3CCOCC3)c(F)c2)C(=O)O1       µg/mL                     1
3  C[C@H]1COc2c(N3CCN(C)CC3)c(F)cc3c(=O)c(C(=O)O)cn1c23.C[C@H]1COc2c(N3CCN(C)CC3)c(F)cc3c(=O)c(C(=O)O)cn1c23.O       µg/mL                     1

Now for a further molecule.
Ask: Would you please give the reported MIC50 of Cn1nnc(-c2ccc(-c3ccc(N4C[C@H](CO)OC4=O)cc3F)cn2)n1 with Streptococcus sp?
Reply: 0.25
